- study system: GDP-KRAS G12V (Homo sapiens, UniProt P01116, G12V)
- Sequence (P01116 1-169 isoform P01116-2 G12V): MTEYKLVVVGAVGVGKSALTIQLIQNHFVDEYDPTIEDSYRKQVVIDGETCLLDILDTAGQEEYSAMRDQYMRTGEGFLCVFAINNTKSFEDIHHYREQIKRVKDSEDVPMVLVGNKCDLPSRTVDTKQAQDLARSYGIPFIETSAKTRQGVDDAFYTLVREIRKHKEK
- assay notes: biochemical
molecules and their reported pIC50
pIC50 (log units): -log10 of the concentration in mol/L.

# molecule, study system, result number
measured = [
    ("C#Cc1c(F)ccc2cc(N)cc(-c3nc4c5c(nc(OC[C@@]67CCCN6C[C@H](F)C7)nc5c3F)N3CCCOCC3N4C3CC3)c12 (stereo partly drawn)", "GDP-KRAS G12V (Homo sapiens, UniProt P01116, G12V)", 8.46),
    ("C#Cc1c(F)ccc2cc(N)cc(-c3nc4c5c(nc(OC[C@@]67CCCN6C[C@H](F)C7)nc5c3F)N3CCC(F)CCC3N4C)c12 (stereo partly drawn)", "GDP-KRAS G12V (Homo sapiens, UniProt P01116, G12V)", 7.82),
    ("C#Cc1c(F)ccc2cc(N)cc(-c3nc4c5c(nc(OC[C@@]67CCCN6C[C@H](F)C7)nc5c3F)N3C(C(F)F)CCOCC3N4C)c12 (stereo partly drawn)", "GDP-KRAS G12V (Homo sapiens, UniProt P01116, G12V)", 8.87),
    ("CCc1c(F)ccc2cc(N)cc(-c3nc4c5c(nc(OC[C@@]67CCCN6C[C@H](F)C7)nc5c3F)N3[C@@H](C)CCOC[C@H]3N4C)c12", "GDP-KRAS G12V (Homo sapiens, UniProt P01116, G12V)", 8.67),
    ("C#Cc1c(F)ccc2cc(N)cc(-c3nc4c5c(nc(OC[C@@]67CCCN6C[C@H](F)C7)nc5c3F)N3CC(C)COC[C@H]3CO4)c12 (stereo partly drawn)", "GDP-KRAS G12V (Homo sapiens, UniProt P01116, G12V)", 7.82),
]

stdin: For the molecule shown here, [2H]C1([2H])OCCCN2c3nc(OC[C@@]45CCCN4C[C@H](F)C5)nc4c(F)c(-c5cc(N)cc6ccc(F)c(C#C)c56)nc(c34)N(C)C21 (stereo partly drawn) , give the reported pIC50.
stdout: 8.94

stdin: Same question, C#Cc1c(F)ccc2cc(N)cc(-c3nc4c5c(nc(OC[C@@]67CCCN6C[C@H](F)C7)nc5c3F)N3C/C(=N\OC)COC[C@@H]3N4C)c12 this time
stdout: 6.39

stdin: Try the molecule N#Cc1c(N)sc2c(F)ccc(-c3c(F)c4c5c(nc(OC[C@@]67CCCN6C[C@H](F)C7)nc5c3F)N3CCCOC[C@H]3CO4)c12 (single isomer, unassigned) [Compound 163A]
stdout: 6.37

stdin: Item: N#Cc1c(N)sc2c(F)ccc(-c3cc4c5c(nc(OC[C@@]67CCCN6C[C@H](F)C7)nc5c3F)N3CCCCC[C@H]3CO4)c12
stdout: 7.67

stdin: Another molecule to check: C#Cc1c(F)ccc2cc(N)cc(-c3nc4c5c(nc(OC[C@@]67CCCN6C[C@H](F)C7)nc5c3F)N3C/C(=N\OC)COC[C@H]3N4C)c12
stdout: 8.74

stdin: Now consider [2H]C([2H])([2H])N1c2nc(-c3cc(N)cc4ccc(F)c(C#C)c34)c(F)c3nc(OC[C@@]45CCCN4C[C@H](F)C5)nc(c23)N2CCCOC[C@H]21 .
stdout: 9.23

stdin: Continue with C#Cc1c(F)ccc2cc(N)cc(-c3nc4c5c(nc(OC[C@@]67CCCN6C[C@H](F)C7)nc5c3F)N3CCC(F)(F)CCC3N4C)c12 (stereo partly drawn)
stdout: 7.05
